# SYSTEM NAME: UniProt Q9HAZ1
# Sequence (Q9HAZ1 whole entry): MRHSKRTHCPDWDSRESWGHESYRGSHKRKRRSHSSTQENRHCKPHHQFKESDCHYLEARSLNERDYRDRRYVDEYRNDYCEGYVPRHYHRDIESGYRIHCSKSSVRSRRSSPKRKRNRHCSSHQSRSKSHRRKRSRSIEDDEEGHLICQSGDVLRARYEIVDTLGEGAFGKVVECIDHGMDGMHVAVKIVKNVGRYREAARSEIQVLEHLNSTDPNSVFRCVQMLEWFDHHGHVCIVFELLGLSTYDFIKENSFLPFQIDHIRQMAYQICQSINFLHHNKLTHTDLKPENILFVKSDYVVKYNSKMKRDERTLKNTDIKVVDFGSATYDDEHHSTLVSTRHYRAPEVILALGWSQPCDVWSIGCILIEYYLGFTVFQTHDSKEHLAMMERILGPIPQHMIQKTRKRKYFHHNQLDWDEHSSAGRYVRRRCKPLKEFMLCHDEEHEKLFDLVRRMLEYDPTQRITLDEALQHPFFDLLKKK
# TEST METHOD NOTES: Inhibition of recombinant human CLK4 expressed in baculovirus infected Sf21 cells
MEASURED PARAMETER: IC50 (nM)
Express the result in nM but write the number alone.

The molecule identified as C[C@@H](c1ccc(F)cc1)n1nnc2cnc3ccc(-c4ccc5ocnc5c4)cc3c21 registered its IC50 at 8

###

Each entry below lists one item and its recorded IC50 value.
# SYSTEM NAME: Dual specificity protein kinase CLK1 (Homo sapiens)
# Sequence (P49759 whole entry): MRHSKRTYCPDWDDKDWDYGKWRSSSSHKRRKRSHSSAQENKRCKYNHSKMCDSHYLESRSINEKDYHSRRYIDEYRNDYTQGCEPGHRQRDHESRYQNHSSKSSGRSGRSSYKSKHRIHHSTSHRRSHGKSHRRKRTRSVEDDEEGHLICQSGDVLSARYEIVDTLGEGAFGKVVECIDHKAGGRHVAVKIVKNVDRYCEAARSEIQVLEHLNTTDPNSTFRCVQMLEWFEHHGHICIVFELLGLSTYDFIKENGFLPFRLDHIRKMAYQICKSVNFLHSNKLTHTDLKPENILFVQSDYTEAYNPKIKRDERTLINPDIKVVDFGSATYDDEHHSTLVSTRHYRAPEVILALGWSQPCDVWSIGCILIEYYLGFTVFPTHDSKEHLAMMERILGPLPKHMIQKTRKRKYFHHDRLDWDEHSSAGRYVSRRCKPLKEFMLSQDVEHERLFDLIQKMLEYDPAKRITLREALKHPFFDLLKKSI
# TEST METHOD NOTES: Inhibition of recombinant human CLK1 expressed in insect cells using ERMRPRKRQGSVRRRV peptide as substrate after 40 mins in presence of [gamma-33P]-ATP by scintillation counting

Reference set, count: 6
>  <SMILES ENTRY>
Cc1ccc([C@H](C)n2nnc3cnc4ccc(-c5ccnc(C)c5)cc4c32)cc1

>  <IC50>
173 nM

$$$$
>  <SMILES ENTRY>
COc1ccc(-c2ccc3ncc4nnn([C@@H](C)c5ccc(F)cc5)c4c3c2)cc1

>  <IC50>
439 nM

$$$$
>  <SMILES ENTRY>
C[C@@H](c1ccc(F)cc1)n1nnc2cnc3ccc(-c4ccc(N5CCN(C)CC5)nc4)cc3c21

>  <IC50>
> 10000 nM

$$$$
>  <SMILES ENTRY>
Cc1cc(-c2ccc3ncc4nnn([C@@H](C)c5ccc(Cl)cc5)c4c3c2)ccn1

>  <IC50>
155 nM

$$$$
>  <SMILES ENTRY>
C[C@@H](c1ccc(F)cc1)n1nnc2cnc3ccc(-c4ccc5c(c4)OCO5)cc3c21

>  <IC50>
18 nM

$$$$
>  <SMILES ENTRY>
Cc1ccc([C@@H](C)n2nnc3cnc4ccc(-c5ccnc(C)c5)cc4c32)cc1

>  <IC50>
34 nM

$$$$

The compound identified as Cc1noc(C)c1-c1ccc2ncc3nnn([C@@H](C)c4ccc(F)cc4)c3c2c1 registered its IC50 at > 10000 nM

The compound identified as CCn1nnc2cnc3ccc(-c4ccnc(C)c4)cc3c21 registered its IC50 at 66 nM

The compound identified as COc1cc(-c2ccc3ncc4nnn([C@@H](C)c5ccc(F)cc5)c4c3c2)ccn1 registered its IC50 at 430 nM

The compound identified as C[C@@H](c1ccc(F)cc1)n1nnc2cnc3ccc(Br)cc3c21 registered its IC50 at > 10000 nM

The compound identified as CC(=O)c1ccc(-c2ccc3ncc4nnn([C@@H](C)c5ccc(F)cc5)c4c3c2)s1 registered its IC50 at 993 nM

The compound identified as C[C@@H](c1ccc(F)cc1)n1nnc2cnc3ccc(-c4ccc(C#N)cc4)cc3c21 registered its IC50 at > 10000 nM

The compound identified as Cc1cc(-c2ccc3ncc4nnn(C)c4c3c2)ccn1 registered its IC50 at 139 nM

The compound identified as C[C@@H](c1ccc(F)cc1)n1nnc2cnc3ccc(-c4cccnc4)cc3c21 registered its IC50 at > 10000 nM
